Target: T1, CD32bECDHis (human, UniProt P31994 43-223, limits assumed)
T1 construct: Produced in HEK-293F cells; also called extracellular domain of CD32b with C-terminal His tag; soluble CD32b
T1 sequence (looked up): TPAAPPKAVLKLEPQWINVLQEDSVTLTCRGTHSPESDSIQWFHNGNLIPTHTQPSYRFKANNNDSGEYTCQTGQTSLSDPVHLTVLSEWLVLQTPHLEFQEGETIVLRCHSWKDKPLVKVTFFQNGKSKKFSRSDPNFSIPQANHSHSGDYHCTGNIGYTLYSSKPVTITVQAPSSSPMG
Assay: ELISA on coated CD32bECDHis
Catalogue of binders with associated EC50
Please respond with the number in pM and leave the unit unwritten.

| binder | EC50 / pM |
| --- | --- |
| Antibody 016 (antibody, human IgG1, V domains shown, Human antibody; also called HuMab 016) VH: QVQLVESGGGVVQPGRSLRLSCAASGFTFSSYGIHWVRQAPGKGLEWVAVIGYDGSDKNYADSVKGRFTIFRDNSKNTLYLQMNSLRAEDTAVYYCARDQLGDAFDIWGQGTMVTVSS VL: EIVLTQSPATLSLSPGERATLSCKASQSVSSSLAWYQQKPGQAPRLLIYDASNRATGIPARFSGSGSGTDFTLTISSLEPEDFAVYYCQQRSNWPPYTFGQGTKLEIKR | 280 |

The recorded EC50 for Antibody 020 (antibody, V domains shown, also called HuMab 020) VH: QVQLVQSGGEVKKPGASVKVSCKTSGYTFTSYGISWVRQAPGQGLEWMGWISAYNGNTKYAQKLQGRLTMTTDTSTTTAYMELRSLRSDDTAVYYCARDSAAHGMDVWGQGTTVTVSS VL: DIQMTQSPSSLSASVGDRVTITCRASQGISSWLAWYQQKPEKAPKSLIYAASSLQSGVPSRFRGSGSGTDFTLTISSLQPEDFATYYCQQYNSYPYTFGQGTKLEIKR is 490

Looking up Antibody 028 (antibody, V domains shown, List 1 gives no VL for antibody 028; The VL is therefore uncertain; also called HuMab 028) VH: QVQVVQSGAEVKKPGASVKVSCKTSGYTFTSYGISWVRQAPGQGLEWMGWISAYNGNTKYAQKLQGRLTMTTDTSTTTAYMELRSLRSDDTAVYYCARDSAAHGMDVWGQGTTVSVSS VL: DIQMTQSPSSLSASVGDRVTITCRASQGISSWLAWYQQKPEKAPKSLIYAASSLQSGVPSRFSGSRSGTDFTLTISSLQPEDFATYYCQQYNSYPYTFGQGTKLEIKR , I see its EC50 listed as 480

EC50 in this record for Antibody 038 (antibody, human IgG1, V domains shown, Human antibody; also called HuMab 038) VH: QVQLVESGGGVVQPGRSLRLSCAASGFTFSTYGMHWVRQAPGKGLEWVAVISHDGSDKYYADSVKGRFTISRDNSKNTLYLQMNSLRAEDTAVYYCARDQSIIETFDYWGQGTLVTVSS VL: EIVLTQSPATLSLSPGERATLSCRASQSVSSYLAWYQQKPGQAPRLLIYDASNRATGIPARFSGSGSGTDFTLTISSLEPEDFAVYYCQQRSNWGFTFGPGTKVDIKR : 620

// EC50 lookup, binder = Antibody 026 (antibody, V domains shown, Human antibody; also called HuMab 026) VH: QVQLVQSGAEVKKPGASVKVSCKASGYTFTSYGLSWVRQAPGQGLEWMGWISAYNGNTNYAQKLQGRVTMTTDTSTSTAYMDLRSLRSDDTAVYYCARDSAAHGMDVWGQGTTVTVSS VL: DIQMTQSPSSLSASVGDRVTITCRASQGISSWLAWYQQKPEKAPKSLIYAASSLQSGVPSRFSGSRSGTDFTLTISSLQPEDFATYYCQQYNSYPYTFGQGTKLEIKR , result: 510

response.value for Antibody 022 (antibody, V domains shown, also called HuMab 022) VH: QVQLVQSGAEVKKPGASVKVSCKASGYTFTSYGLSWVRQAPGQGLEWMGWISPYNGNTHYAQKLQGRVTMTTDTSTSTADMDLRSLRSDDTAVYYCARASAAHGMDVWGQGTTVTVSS VL: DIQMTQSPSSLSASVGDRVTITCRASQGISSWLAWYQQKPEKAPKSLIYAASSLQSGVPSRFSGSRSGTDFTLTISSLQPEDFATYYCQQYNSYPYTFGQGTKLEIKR (field: EC50) = 750

Input Antibody 024 (antibody, V domains shown, also called HuMab 024) VH: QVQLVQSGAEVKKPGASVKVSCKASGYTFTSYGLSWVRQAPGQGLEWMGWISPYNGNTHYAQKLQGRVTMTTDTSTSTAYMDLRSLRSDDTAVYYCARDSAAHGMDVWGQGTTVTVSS VL: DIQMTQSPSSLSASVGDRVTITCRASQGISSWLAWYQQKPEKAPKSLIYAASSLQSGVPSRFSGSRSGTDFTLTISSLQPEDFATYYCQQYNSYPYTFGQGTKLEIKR . Output EC50: 750
